Reference source: PubChem BioAssay AID2060494

System: 435261-313-R-J1-PDC complex spheroid viability
Assay: Anticancer human tumor 435261-313-R-J1-PDC patient-derived colon adenocarcinoma cell line growth inhibition [GQUAD]
Settings: curve of first compound; second compound 0.0316 µM
Catalogue of IC50 values

In the examples that follow, each entry is paired with its recorded IC50.
{"compound": "C#Cc1c(F)ccc2cc(O)cc(-c3ncc4c(N5CC6CCC(C5)N6)nc(OCC56CCCN5CC(F)C6)nc4c3F)c12 (stereo not drawn) + CN(C)c1ccc(Nc2c3ccc(NC(=O)CCN4CCCC4)cc3nc3cc(NC(=O)CCN4CCCC4)ccc23)cc1", "measurement.label": "IC50", "result": "> 10 µM"}
{"compound": "CC[C@@]1(O)C(=O)OCc2c1cc1n(c2=O)Cc2cc3c(CN(C)C)c(O)ccc3nc2-1 + CN(C)c1ccc(Nc2c3ccc(NC(=O)CCN4CCCC4)cc3nc3cc(NC(=O)CCN4CCCC4)ccc23)cc1", "measurement.label": "IC50", "result": "> 0.316 µM"}

Please look at the following compound next.
Item: CC[C@@]1(O)C(=O)OCc2c1cc1n(c2=O)Cc2cc3c(CN(C)C)c(O)ccc3nc2-1 + Cc1[nH]c2ccc(F)cc2c1-c1nc2c3cccnc3c3ncccc3c2[nH]1 | IC50: > 0.316 µM

* * *

Tested on: 435261-313-R-J1-PDC complex spheroid viability
Test: Anticancer human tumor 435261-313-R-J1-PDC cell line growth inhibition [GQUAD];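 further: spheroids exposed to the agents for seven days before readout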;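 on viability, T/C: percent of vehicle control viability with DMSO wells as 100%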
Settings: second compound 0.0316 µM; first compound 3.16 µM; stronger effect = lower value
We'd kindly ask you to apply these viability, T/C classes: A: < 60%; B: ≥ 60% and < 80%; C: ≥ 80%

{"molecule": "COc1ccc([C@@H](O)c2cc(-c3ncnc4cc(N5CCOCC5)ccc34)c(F)cc2Cl)nn1 + Cc1cnc(CNC(=O)c2c(=O)c3ccc(N4CCCN(C)CC4)nc3n3c2sc2ccccc23)cn1", "assigned.class": "A"}
{"molecule": "Nc1ccn(C2OC(CO)C(O)C2(F)F)c(=O)n1 (centres undefined) + Cc1[nH]c2ccc(F)cc2c1-c1nc2c3cccnc3c3ncccc3c2[nH]1", "assigned.class": "A"}
{"molecule": "O=C(c1cc(Cc2n[nH]c(=O)c3ccccc23)ccc1F)N1CCN(C(=O)C2CC2)CC1 + CN(C)c1ccc(Nc2c3ccc(NC(=O)CCN4CCCC4)cc3nc3cc(NC(=O)CCN4CCCC4)ccc23)cc1", "assigned.class": "C"}
{"molecule": "C=CC(=O)N1CCN(c2nc(=O)n(-c3c(C)ccnc3C(C)C)c3nc(-c4c(O)cccc4F)c(F)cc23)C(C)C1 (centres undefined) + CN(C)c1ccc(Nc2c3ccc(NC(=O)CCN4CCCC4)cc3nc3cc(NC(=O)CCN4CCCC4)ccc23)cc1", "assigned.class": "C"}
{"molecule": "Cc1cccc(N(C)C(=O)C2C(O)CCN2c2nc(C)cc(C(F)(F)F)c2C#N)c1 (centres undefined) + CN(C)c1ccc(Nc2c3ccc(NC(=O)CCN4CCCC4)cc3nc3cc(NC(=O)CCN4CCCC4)ccc23)cc1", "assigned.class": "C"}
{"molecule": "CC1COCCN1c1cc(C2(S(C)(=N)=O)CC2)nc(-c2ccnc3[nH]ccc23)n1 (centres undefined) + Cc1[nH]c2ccc(F)cc2c1-c1nc2c3cccnc3c3ncccc3c2[nH]1", "assigned.class": "B"}

Exam item: assign C#Cc1c(F)ccc2cc(O)cc(-c3ncc4c(N5CC6CCC(C5)N6)nc(OCC56CCCN5CC(F)C6)nc4c3F)c12 (centres undefined) + CN(C)c1ccc(Nc2c3ccc(NC(=O)CCN4CCCC4)cc3nc3cc(NC(=O)CCN4CCCC4)ccc23)cc1 to the correct category.
B

Exam item: assign C#Cc1c(F)ccc2cc(O)cc(-c3ncc4c(N5CC6CCC(C5)N6)nc(OCC56CCCN5CC(F)C6)nc4c3F)c12 (centres undefined) + Cc1[nH]c2ccc(F)cc2c1-c1nc2c3cccnc3c3ncccc3c2[nH]1 to the correct category.
B

Exam item: assign COc1cc(C2c3cc4c(cc3C(OC3OC5COC(C)OC5C(O)C3O)C3COC(=O)C23)OCO4)cc(OC)c1O (centres undefined) + Cc1cnc(CNC(=O)c2c(=O)c3ccc(N4CCCN(C)CC4)nc3n3c2sc2ccccc23)cn1 to the correct category.
A

Exam item: assign O=c1[nH]cc(F)c(=O)[nH]1 + Cc1[nH]c2ccc(F)cc2c1-c1nc2c3cccnc3c3ncccc3c2[nH]1 to the correct category.
B

Exam item: assign CC1COCCN1c1cc(-c2ccnn2C)c2ccnc(-c3ccn[nH]3)c2n1 (centres undefined) + CN(C)c1ccc(Nc2c3ccc(NC(=O)CCN4CCCC4)cc3nc3cc(NC(=O)CCN4CCCC4)ccc23)cc1 to the correct category.
A

* * *

Catalogue of pIC50 values
Tested on: 435261-313-R-J1-PDC complex spheroid viability
Assay: Anticancer human tumor 435261-313-R-J1-PDC cell line growth inhibition [GQUAD];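 further: spheroids exposed to the agents for seven days before readout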
Settings: curve of first compound; second compound 1 µM
pIC50: −log10 of the molar value.

In the examples that follow, each entry is paired with its recorded pIC50.
{"molecule": "Nc1ccn(C2OC(CO)C(O)C2(F)F)c(=O)n1 (stereo not given) + CN(C)c1ccc(Nc2c3ccc(NC(=O)CCN4CCCC4)cc3nc3cc(NC(=O)CCN4CCCC4)ccc23)cc1", "assay.target": "435261-313-R-J1-PDC complex spheroid viability", "pIC50": "< 5.00"}
{"molecule": "O=c1[nH]cc(F)c(=O)[nH]1 + Cc1cnc(CNC(=O)c2c(=O)c3ccc(N4CCCN(C)CC4)nc3n3c2sc2ccccc23)cn1", "assay.target": "435261-313-R-J1-PDC complex spheroid viability", "pIC50": "> 7.50"}
{"molecule": "CC(=O)O[C@H]1C(=O)[C@@]2(C)[C@H]([C@H](OC(=O)c3ccccc3)[C@]3(O)C[C@H](OC(=O)[C@H](O)[C@@H](NC(=O)c4ccccc4)c4ccccc4)C(C)=C1C3(C)C)[C@]1(OC(C)=O)CO[C@@H]1C[C@@H]2O + CN(C)c1ccc(Nc2c3ccc(NC(=O)CCN4CCCC4)cc3nc3cc(NC(=O)CCN4CCCC4)ccc23)cc1", "assay.target": "435261-313-R-J1-PDC complex spheroid viability", "pIC50": "< 5.00"}

Item: O=C(c1cc(Cc2n[nH]c(=O)c3ccccc23)ccc1F)N1CCN(C(=O)C2CC2)CC1 + CN(C)c1ccc(Nc2c3ccc(NC(=O)CCN4CCCC4)cc3nc3cc(NC(=O)CCN4CCCC4)ccc23)cc1 | pIC50: < 5.00

Item: Cc1cccc(N(C)C(=O)C2C(O)CCN2c2nc(C)cc(C(F)(F)F)c2C#N)c1 (stereo not given) + Cc1[nH]c2ccc(F)cc2c1-c1nc2c3cccnc3c3ncccc3c2[nH]1 | pIC50: < 5.00

* * *

System: 435261-313-R-J1-PDC complex spheroid viability
Assay: Anticancer human tumor 435261-313-R-J1-PDC cell line growth inhibition [GQUAD];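 further: spheroids exposed to the agents for seven days before readout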;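 on viability, T/C: percent of vehicle control viability with DMSO wells as 100%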
Settings: second compound 3.16 µM; first compound 0.1 µM; stronger effect = lower value
measurement.label: viability, T/C

{"compound": "O=C(c1cc(Cc2n[nH]c(=O)c3ccccc23)ccc1F)N1CCN(C(=O)C2CC2)CC1 + CN(C)c1ccc(Nc2c3ccc(NC(=O)CCN4CCCC4)cc3nc3cc(NC(=O)CCN4CCCC4)ccc23)cc1", "measurement.label": "viability, T/C", "result": "53.2%"}
{"compound": "C=CCn1c(=O)c2cnc(Nc3ccc(N4CCN(C)CC4)cc3)nc2n1-c1cccc(C(C)(C)O)n1 + CN(C)c1ccc(Nc2c3ccc(NC(=O)CCN4CCCC4)cc3nc3cc(NC(=O)CCN4CCCC4)ccc23)cc1", "measurement.label": "viability, T/C", "result": "48.2%"}
{"compound": "COc1cc(C2c3cc4c(cc3C(OC3OC5COC(C)OC5C(O)C3O)C3COC(=O)C23)OCO4)cc(OC)c1O (stereo not given) + Cc1cnc(CNC(=O)c2c(=O)c3ccc(N4CCCN(C)CC4)nc3n3c2sc2ccccc23)cn1", "measurement.label": "viability, T/C", "result": "16.3%"}
{"compound": "COc1cccc2c1C(=O)c1c(O)c3c(c(O)c1C2=O)CC(O)(C(=O)CO)CC3OC1CC(N)C(O)C(C)O1 (stereo not given) + CN(C)c1ccc(Nc2c3ccc(NC(=O)CCN4CCCC4)cc3nc3cc(NC(=O)CCN4CCCC4)ccc23)cc1", "measurement.label": "viability, T/C", "result": "62.5%"}

Please look at the following compound next.
Item: O=C(NO)c1cnc(N2CCN(S(=O)(=O)c3ccc4ccccc4c3)CC2)nc1 + Cc1[nH]c2ccc(F)cc2c1-c1nc2c3cccnc3c3ncccc3c2[nH]1 | viability, T/C: 25.7%

* * *

Catalogue of viability, T/C values
System: 435261-313-R-J1-PDC complex spheroid viability
Assay: Anticancer human tumor 435261-313-R-J1-PDC cell line growth inhibition [GQUAD];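 further: spheroids exposed to the agents for seven days before readout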;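 on viability, T/C: percent of vehicle control viability with DMSO wells as 100%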
Conditions: second compound 0.1 µM; first compound 0.0316 µM; stronger effect = lower value
The figure you give is taken to be in %; do not add the unit.

{"compound": "CC1COCCN1c1cc(-c2ccnn2C)c2ccnc(-c3ccn[nH]3)c2n1 (stereo not drawn) + CN(C)c1ccc(Nc2c3ccc(NC(=O)CCN4CCCC4)cc3nc3cc(NC(=O)CCN4CCCC4)ccc23)cc1", "assay.target": "435261-313-R-J1-PDC complex spheroid viability", "viability, T/C (%)": 88.4}
{"compound": "CC(C)n1c(=O)n(C)c2cnc3cc(F)c(-c4ccc(OCCCN5CCCCC5)nc4)cc3c21 + Cc1cnc(CNC(=O)c2c(=O)c3ccc(N4CCCN(C)CC4)nc3n3c2sc2ccccc23)cn1", "assay.target": "435261-313-R-J1-PDC complex spheroid viability", "viability, T/C (%)": 61}

Please look at the following compound next.
Item: CC[C@@]1(O)C(=O)OCc2c1cc1n(c2=O)Cc2cc3c(CN(C)C)c(O)ccc3nc2-1 + CN(C)c1ccc(Nc2c3ccc(NC(=O)CCN4CCCC4)cc3nc3cc(NC(=O)CCN4CCCC4)ccc23)cc1 | viability, T/C: 84.6
